# Study Target: IMPDH human type II (Homo sapiens, UniProt P12268)
# Assay Procedure: IMPDH activity inhibition assay (spectrophotometric, NADH formation at 340 nm)
# Type: biochemical
# Experimental Parameters: IMPDH human type II, 15 to 50 nM enzyme, 37° C., tight-binding fit (Henderson); read-out: Ki
Listed here: items and their measured Ki.

Some compounds with recorded Ki:
| Compound | Reported Value |
| --- | --- |
| O=C(Nc1cccc(I)c1)Nc1ccc(-c2cnco2)c(Cl)c1 | 51 to 1000 nM |
| O=C(Nc1ccc(-c2cnco2)cc1)Nc1ccc(F)c(F)c1 | > 10000 nM |
| NC(=O)c1cccc(NC(=O)Nc2ccc(-c3cnco3)cc2)c1 | > 10000 nM |
| COc1cc(NC(=O)Nc2cccc(CN)c2)ccc1-c1cnco1 | 51 to 1000 nM |
| COc1cc(NC(=O)Nc2cccc(C)c2)ccc1-c1cnco1 | 0.01 to 50 nM |
| CC(=O)OCc1cc(NC(=O)Nc2cccc(C)c2)ccc1-c1cnco1 | 1000 to 10000 nM |
| O=C(Nc1ccc(-c2cnco2)cc1)Nc1ccc(Cl)c(C(F)(F)F)c1 | 1000 to 10000 nM |
| COc1cc(NC(=O)Nc2cccc(CNC(=O)OCc3cccs3)c2)ccc1-c1cnco1 | 0.01 to 50 nM |
| COc1ccc(NC(=O)Nc2cccc(C)c2)cc1OC | 1000 to 10000 nM |
| O=C(Nc1ccsc1)Nc1ccc(-c2cnco2)c(Cl)c1 | 51 to 1000 nM |

Enquiry: Given COc1cc(NC(=O)Nc2cccc(CNC(=O)OC(CO)CO)c2)ccc1-c1cnco1 , state its recorded Ki.
Return: 51 to 1000 nM

Enquiry: And what about the compound O=C(NCc1ccccc1)Nc1ccc(-c2cnco2)cc1 ?
Return: 1000 to 10000 nM

Enquiry: And what about the compound Cc1cccc(NC(=O)Nc2ccc(-c3cnco3)c(Br)c2)c1 ?
Return: 51 to 1000 nM

Enquiry: And what about the compound CNc1cccc(NC(=O)Nc2ccc(-c3cnco3)c(Cl)c2)c1 ?
Return: 51 to 1000 nM

Enquiry: And what about the compound O=C(Nc1ccc(-c2cnco2)cc1)Nc1ccc([N+](=O)[O-])c(C(F)(F)F)c1 ?
Return: 1000 to 10000 nM

Enquiry: And what about the compound COc1cc(NC(=O)Nc2cccc(CNC(=O)OCCCCO)c2)ccc1-c1cnco1 ?
Return: 0.01 to 50 nM

Enquiry: And what about the compound Nc1cccc(NC(=O)Nc2ccc(-c3cnco3)cc2)c1 ?
Return: 51 to 1000 nM

Enquiry: And what about the compound COc1cc(NC(=O)Nc2cccc(CNC(=O)OC3CCCCO3)c2)ccc1-c1cnco1 (racemic) ?
Return: 0.01 to 50 nM

Enquiry: And what about the compound COCCCOC(=O)NCc1cccc(NC(=O)Nc2ccc(-c3cnco3)c(OC)c2)c1 ?
Return: 0.01 to 50 nM

----------
# Study Target: IMPDH human type II (Homo sapiens)
# Assay Procedure: IMPDH activity inhibition assay (spectrophotometric, NADH formation at 340 nm)
# Format: biochemical
Reported Property: Ki

Some molecules with recorded Ki:
| Molecule | Reported Value |
| --- | --- |
| COc1cc(NC(=O)Nc2cccc(CNC(=O)Oc3cccnc3)c2)ccc1-c1cnco1 [Compound 137] | 51 to 1000 nM |
| COc1cc(NC(=O)Nc2cccc(CNC(=O)OCCO)c2)ccc1-c1cnco1 [Compound 134] | 0.01 to 50 nM |

Enquiry: Given C=CCOC(=O)NCc1cccc(NC(=O)Nc2ccc(-c3cnco3)c(OC)c2)c1 [Compound 125] , state its recorded Ki.
Return: 0.01 to 50 nM

----------
Listed here: items and their measured pKi.
# Study Target: IMPDH human type II (Homo sapiens)
# Assay Procedure: IMPDH activity inhibition assay (spectrophotometric, NADH formation at 340 nm)
# Type: biochemical
# Experimental Parameters: IMPDH human type II, 15 to 50 nM enzyme, 37° C., tight-binding fit (Henderson); read-out: Ki
pKi: −log10 of the molar value.

| Compound | Reported Property | Reported Value |
| --- | --- | --- |
| COc1cc(NC(=O)Nc2cccc(CNC(=O)OCC3CCCCC3)c2)ccc1-c1cnco1 [Compound 135] | pKi | 7.30 to 11.00 |
| COc1cc(NC(=O)Nc2cccc(NC(=O)C(F)F)c2)ccc1-c1cnco1 [Compound 100] | pKi | 6.00 to 7.29 |

Would you kindly look at the next entry?
Enquiry: Given COc1ccc(C)cc1NC(=O)Nc1ccc(-c2cnco2)cc1 [Compound 11] , state its recorded pKi.
Return: 5.00 to 6.00

----------
# Study Target: IMPDH human type II (Homo sapiens, UniProt P12268)
# Assay Procedure: IMPDH activity inhibition assay (spectrophotometric, NADH formation at 340 nm)
# Assay type: biochemical
# Experimental Parameters: IMPDH human type II, 15 to 50 nM enzyme, 37° C., tight-binding fit (Henderson); read-out: Ki
Reported Property: Ki

Some molecules with recorded Ki:
| Molecule | Reported Value |
| --- | --- |
| O=C(Nc1ccc(-c2cnco2)cc1)Nc1cccc([N+](=O)[O-])c1 | 1000 to 10000 nM |
| COc1cc(NC(=O)Nc2cccc(CNC(=O)O[C@H]3CCOC3)c2)ccc1-c1cnco1 | 0.01 to 50 nM |

Enquiry: Given O=C(Nc1ccc(-c2cnco2)cc1)Nc1ccsc1 , state its recorded Ki.
Return: 51 to 1000 nM

Enquiry: And what about the molecule O=C(Nc1ccc(-c2cnco2)cc1)Nc1cccnc1 ?
Return: > 10000 nM

Enquiry: And what about the molecule N#Cc1cccc(NC(=O)Nc2ccc(-c3cnco3)cc2)c1 ?
Return: 1000 to 10000 nM

Enquiry: And what about the molecule COc1cc(NC(=O)Nc2cccc(NC(C)=O)c2)ccc1-c1cnco1 ?
Return: 51 to 1000 nM

Enquiry: And what about the molecule Cc1cccc(NC(=O)Nc2ccc(-c3cnco3)c(N)c2)c1 ?
Return: 51 to 1000 nM

Enquiry: And what about the molecule COCCOC(=O)NCc1cccc(NC(=O)Nc2ccc(-c3cnco3)c(OC)c2)c1 ?
Return: 0.01 to 50 nM

----------
# Study Target: UniProt:P12268
# Assay Procedure: IMPDH activity inhibition assay (spectrophotometric, NADH formation at 340 nm)
# Type: biochemical
# Experimental Parameters: IMPDH human type II, 15 to 50 nM enzyme, 37° C., tight-binding fit (Henderson); read-out: Ki
pKi: −log10 of the molar value.
Reported Property: pKi

Some compounds with recorded pKi:
| Compound | pKi |
| --- | --- |
| CSc1cccc(NC(=O)Nc2ccc(-c3cnco3)cc2)c1 [Compound 6] | 5.00 to 6.00 |
| COc1cc(NC(=O)Nc2cccc(CNC(=O)OCC3CCCCN3)c2)ccc1-c1cnco1 (centres unmarked) [Compound 159] | 7.30 to 11.00 |
| COc1cc(NC(=O)Nc2cccc(CNC(=O)OCc3ccccc3)c2)ccc1-c1cnco1 [Compound 138] | 7.30 to 11.00 |
| Cc1cccc(NC(=O)Nc2cccc([N+](=O)[O-])c2)c1 [Compound 32] | < 5.00 |
| COc1cc(NC(=O)Nc2cccc(CNC(=O)OC[C@@H]3CNC(=O)O3)c2)ccc1-c1cnco1 [Compound 122] | 7.30 to 11.00 |
| COc1cc(NC(=O)Nc2cccc(NC(=O)C(F)(F)F)c2)ccc1-c1cnco1 [Compound 96] | 6.00 to 7.29 |
| COc1cc(NC(=O)Nc2cccc(CNC(=O)OCC3CCN(C(=O)OC(C)(C)C)CC3)c2)ccc1-c1cnco1 [Compound 148] | 7.30 to 11.00 |
| COc1cc(NC(=O)Nc2cccc(CNC(=O)OCC3CCCCO3)c2)ccc1-c1cnco1 (centres unmarked) [Compound 154] | 7.30 to 11.00 |

Would you kindly look at the next entry?
Enquiry: Given Cc1cc(NC(=O)Nc2ccc(-c3cnco3)cc2)ccc1[N+](=O)[O-] [Compound 40] , state its recorded pKi.
Return: 5.00 to 6.00

----------
Listed here: items and their measured Ki.
# Study Target: IMPDH human type II (Homo sapiens, UniProt P12268)
# Assay Procedure: IMPDH activity inhibition assay (spectrophotometric, NADH formation at 340 nm)
# Format: biochemical
# Experimental Parameters: IMPDH human type II, 15 to 50 nM enzyme, 37° C., tight-binding fit (Henderson); read-out: Ki

| Compound | Ki |
| --- | --- |
| O=C(O)Cc1cccc(NC(=O)Nc2ccc(-c3cnco3)c(Cl)c2)c1 | 1000 to 10000 nM |
| O=C(Nc1ccc(-c2cnco2)cc1)Nc1ccc(F)c([N+](=O)[O-])c1 | 1000 to 10000 nM |
| O=C(O)Cc1cccc(NC(=O)Nc2ccc(-c3cnco3)cc2)c1 | 1000 to 10000 nM |

Would you kindly look at the next entry?
Enquiry: Given COc1cc(NC(=O)Nc2cccc(CNC(=O)OCC3CCCCN3C(=O)OC(C)(C)C)c2)ccc1-c1cnco1 (stereo not shown) , state its recorded Ki.
Return: 51 to 1000 nM
